Test system: human plasma
assay.notes: determination of in-vitro anticoagulant effect in human plasma (APTT)
Type: biochemical
condition.set: 10 µM; healthy human plasma, 37°C for 3 min
outcome.measure: APTT prolongation rate (%)

| structure.notation | result |
| --- | --- |
| CC[C@@H](C(=O)Nc1ccc(C(N)=O)c(C(N)=O)c1)n1cc(OC)c(-c2cc(Cl)ccc2-n2cc(C(F)(F)F)nn2)cc1=O | 93.8% |
| CC[C@@H](C(=O)Nc1ccc(C(N)=O)c(F)c1F)n1cc(OC)c(-c2cc(Cl)ccc2-n2cc(C(F)(F)F)nn2)cc1=O | 81.1% |
| CC[C@@H](C(=O)Nc1ccc(C(=O)O)c(OC)c1)n1cc(OC)c(-c2cc(Cl)ccc2-n2cc(C(F)(F)F)nn2)cc1=O | 135.1% |
| [2H]C([2H])([2H])Oc1cn([C@@H](CC)C(=O)Nc2ccc(C(N)=O)cc2F)c(=O)cc1-c1cc(Cl)ccc1-n1cc(C(F)(F)F)nn1 | 168.0% |
| CC[C@@H](C(=O)Nc1ccc(C(=O)NC)c(OC)c1)n1cc(OC)c(-c2cc(Cl)ccc2-n2cc(C(F)(F)F)nn2)cc1=O | 90.6% |
| CC[C@@H](C(=O)Nc1ccc(C(=O)NC)c(Cl)c1)n1cc(OC)c(-c2cc(Cl)ccc2-n2cc(C(F)(F)F)nn2)cc1=O | 92.0% |
| [2H]C([2H])([2H])Oc1cn([C@@H](CC)C(=O)Nc2ccc(C(=O)NC)cc2F)c(=O)cc1-c1cc(Cl)ccc1-n1cc(C(F)(F)F)nn1 | 132.5% |
| [2H]C([2H])([2H])Oc1cn([C@@H](CC)C(=O)Nc2ccc(C(=O)NC)c(F)c2)c(=O)cc1-c1cc(Cl)ccc1-n1cc(C(F)(F)F)nn1 | 158.5% |
| CC[C@@H](C(=O)Nc1ccc(C(=O)NC)c(F)c1)n1cc(OC)c(-c2cc(Cl)ccc2-n2cc(C(F)(F)F)nn2)cc1=O | 145.3% |
| CC[C@@H](C(=O)Nc1ccc(C(N)=O)c(Cl)c1)n1cc(OC)c(-c2cc(Cl)ccc2-n2cc(Cl)nn2)cc1=O | 98.9% |
| CC[C@@H](C(=O)Nc1cc(F)c(C(=O)NC)c(F)c1)n1cc(OC)c(-c2cc(Cl)ccc2-n2cc(C(F)(F)F)nn2)cc1=O | 98.6% |
| CC[C@@H](C(=O)Nc1ccc(C(N)=O)c(C(F)(F)F)c1)n1cc(OC)c(-c2cc(Cl)ccc2-n2cc(Cl)nn2)cc1=O | 42.0% |
| CC[C@@H](C(=O)Nc1ccc(C(N)=O)c(C(F)(F)F)c1)n1cc(OC)c(-c2cc(Cl)ccc2-n2cc(C(F)(F)F)nn2)cc1=O | 73.4% |
| CC[C@@H](C(=O)Nc1ccc(C(N)=O)cc1Cl)n1cc(OC)c(-c2cc(Cl)ccc2-n2cc(C(F)(F)F)nn2)cc1=O | 26.8% |
| CC[C@@H](C(=O)Nc1ccc(C(=O)OC)c(Cl)c1)n1cc(OC)c(-c2cc(Cl)ccc2-n2cc(C(F)(F)F)nn2)cc1=O | 102.6% |
| CC[C@@H](C(=O)Nc1ccc(C(=O)NC)cc1F)n1cc(OC)c(-c2cc(Cl)ccc2-n2cc(C(F)(F)F)nn2)cc1=O | 77.1% |
| CC[C@@H](C(=O)Nc1ccc(C(N)=O)c(Cl)c1)n1cc(OC)c(-c2cc(Cl)ccc2-n2cc(C(F)(F)F)nn2)cc1=O | 136.5% |
